Values were extracted from PubChem BioAssay (NCI).

- System: SF-268 CNS
- measurementNotes: NCI tumour cell line growth inhibition, 48 h
measurementKind: GI50

• COc1ccc(S(=O)(=O)NC2=NCCN2C(=S)SN2CCn3c2nsc3=S)cc1OC = 23200 nM
• COc1cccc2c1nc1cccc(OC)c1[n+]2[O-] = 2650 nM
• CC(C)(C)OC(=O)N1CC(Cn2cc(C(F)(F)F)c3c(Cl)ncnc32)C1 = 1750 nM

---

- System: CCRF-CEM leukemia
- measurementNotes: NCI tumour cell line growth inhibition, 48 h; in the data active = GI50 below about 0.43 µM; inactive = the rest
Classes used: t = active, f = inactive

* COc1ccc(N2CCN(CN3CCN(c4ccc(OC)cc4)C3)C2)cc1 | f
* COc1cc(/C=C2\CCCC3C2=Nc2ccccc2NC3c2cc(OC)c(OC)c(OC)c2)cc(OC)c1OC (stereo unspecified) | f
* COc1cc2cn3c4ccc(O)cc4nc(N)c3c2cc1OC | t
* C=CC(=O)NCCOc1cccc(Nc2cc(NCCCNC(=O)C3CCC3)c(Br)cn2)c1 | f
* O=c1c2[nH]c3ccccc3c2nc2n1CCS2 | f
* O=C(C[C@@]1(O)C(=O)Nc2c(Cl)ccc(Cl)c21)c1ccc(C2CC2)cc1 | t
* COc1ccc(S(=O)(=O)NC2=NCCN2C(=S)SN2CCn3c2nsc3=S)cc1OC | f
* CCN1/C(=C/C=C/C=C/c2sc3ccccc3[n+]2CC)Sc2ccccc21 | t
* S=c1nc[nH]c2nc[nH]c12 | f
* C[C@@H]1[C@H]2[C@H](C=C3[C@@H]4CC[C@H]5Cc6nc7c(nc6C[C@]5(C)[C@H]4C[C@@H](O)[C@@]32C)C[C@@H]2CC[C@H]3C4=C[C@@H]5O[C@@]6(CC[C@](C)(CO)O6)[C@@H](C)[C@@]5(O)[C@@]4(C)[C@H](O)C[C@@H]3[C@@]2(C)C7)O[C@]12CCC(C)(C)O2 | t
* COc1cc(-c2nc3ccccc3[nH]2)ccc1OCC(=O)N=Nc1c(O)[nH]c2ccc(Cl)cc12 | f

---

- Tested on: SF-539 CNS
- measurementNotes: NCI tumour cell line growth inhibition, 48 h; in the data active = GI50 below about 0.43 µM; inactive = the rest
Outcome codes: label 1 for active, label 0 for inactive

• OC(COc1cccc2ccccc12)CN1CCN(c2ccc(Cl)cc2)CC1 (stereo not drawn) = label 0
• Cc1cc(O)c(C2=NN(c3ccc(S(N)(=O)=O)cc3)C(c3ccccc3O)C2)cc1Cl (stereo not drawn) = label 0
• CCc1nc(-n2c(CC)nc3ccccc3c2=O)nc(N)c1-c1ccc(Cl)cc1 = label 0
• C[C@H](C(=O)N[C@@H](Cc1ccc(-c2ccccc2)cc1)C(=O)NC1CC(C)(C)N(C)C(C)(C)C1)c1ccc(-c2ccccc2)c(F)c1 = label 0
• O=C(CCc1ccco1)NC1CCN(CC2(c3ccc(Cl)cc3)CCC2)CC1 = label 0
• COc1ccc2c(O)c(/C=C3\N=Nc4ncccc43)oc2c1C[C@H]1CCNC[C@H]1F = label 1
• NC(=O)c1ccc2nc(-c3ccc(C4(N)CCC4)cc3)c(-c3ccccc3)n2n1 = label 0
• Cc1c2cnccc2c(C)c2c1c1cc(C(=O)O)ccc1n2C = label 0
• COc1ccc(-c2nn(-c3ccc(NC(=O)Nc4ccc(Cl)c(Cl)c4)cc3)cc2-c2ccncc2)cc1Cl = label 0
• Cc1ccc(Nc2[nH]c(C(=O)c3ccc(Cl)cc3)c(N)c2C(=S)Nc2ccccc2)nc1 = label 0
• COc1cc(-c2nc3ccccc3[nH]2)ccc1OCC(=O)N=Nc1c(O)[nH]c2ccc(Cl)cc12 = label 0
• COc1ccc(S(=O)(=O)NC2=NCCN2C(=S)SN2CCn3c2nsc3=S)cc1OC = label 0
• COc1cc(CNc2nc3cc(N)cc(N)c3nc2-c2ccccc2)cc(OC)c1OC = label 0

---

- Tested on: M19-MEL melanoma
- measurementNotes: NCI tumour cell line growth inhibition, 48 h
measurementKind: log10 of TGI (log10 of the value in µM)

* CC(OC1CC(=O)CC2C(=O)C=CC(=O)C12)c1ccccc1 (stereo not given) | 1.47
* [C-]#[O+].[C-]#[O+].[Ir].[O-]c1ccc2ccccc2c1N=Nc1ccccc1 | 1.33
* CCCCCCCCCCCCC/C=C1\C[C@H](O)COC1=O | 1.53
* Clc1ccccc1C1N2CCCCC2[C@@H]2c3[nH]c4ccccc4c3CCN12 (stereo not given in full) | 1.47
* CN(C)CCNC(=O)c1cccc2cc([N+](=O)[O-])ccc12 | -0.04
* O=Nc1ccc(O)c2ncccc12 | 1.21
* NCCn1ccc(NC(c2ccccc2)(c2ccccc2)c2ccccc2)nc1=O | 1.63

---

- Test system: MDA-MB-435
- measurementNotes: NCI tumour cell line growth inhibition, 48 h
measurementKind: TGI (µM)

- Cc1cc(Nc2cc(CN3CCOCC3)c3nc(C)c(Cc4ccc(Cl)cc4F)n3n2)n[nH]1: 19.6
- O=C1OCC2=C1C(c1cccc(C(F)(F)F)c1)c1cc3c(cc1N2CCO)OCO3 (configuration not stated): 0.641
- CCN1CCC2(CC1)NC(=O)c1c(c3ccc(Cl)c(Cl)c3n1C)C2C#N (configuration not stated): 3.77
- O=Nc1ccc(O)c2ncccc12: 3.83
- COc1cccc2c1nc1cccc(OC)c1[n+]2[O-]: 44.8

---

- Test system: M14 melanoma
- measurementNotes: NCI tumour cell line growth inhibition, 48 h
Below, each of the molecules is paired with its reported TGI value.
measurementKind: TGI (µM)

* Cc1cc(Nc2cc(CN3CCOCC3)c3nc(C)c(Cc4ccc(Cl)cc4F)n3n2)n[nH]1 | 14.2
* CN(C)/N=C1\C=C2CC[C@H](O[Si](C)(C)C(C)(C)C)[C@@]2(C)CC1 | 33
* CC(OC1CC(=O)CC2C(=O)C=CC(=O)C12)c1ccccc1 (stereo not given) | 33.3

---

- System: NCI-H460 lung
- measurementNotes: NCI tumour cell line growth inhibition, 48 h
Overview of recorded TGI for various compounds
measurementKind: TGI

• CC(=O)OCC1OC(O[C@@H]2C[C@H]3C(C)(C)[C@H](OC(C)=O)CC[C@]3(C)[C@H]3CC[C@]4(C)C(=CC[C@H]4[C@@H](C)C[C@@H](O)[C@H](O)C(C)(C)O)[C@@]32C)C(O)C(O)C1O (stereo partly drawn) = 31.2 µM
• CSC1=C(C#N)C(=O)N(c2ccc(Cl)cc2)C(=O)C1C#N (stereo not drawn) = > 100 µM
• O=S(=O)(O)c1cc(N=Nc2cc(S(=O)(=O)O)c3ccccc3c2O)ccc1/C=C/c1ccc(N=Nc2cc(S(=O)(=O)O)c3ccccc3c2O)cc1S(=O)(=O)O = > 881 µM

---

- Test system: OVCAR-4 ovarian
- measurementNotes: NCI tumour cell line growth inhibition, 48 h
measurementKind: TGI (µM)

• O=C1c2ccccc2C(=O)c2c(NC(=O)C(Cl)CCl)cccc21 (stereo unspecified) = 23.3
• COc1ccc2c(c1)C(=O)c1c-2c(OCCN(C)C)nc2cc(OC)ccc12 = 2.9
• COc1ccc(S(=O)(=O)NC2=NCCN2C(=S)SN2CCn3c2nsc3=S)cc1OC = 34.8

---

- Test system: CCRF-CEM leukemia
- measurementNotes: NCI tumour cell line growth inhibition, 48 h
measurementKind: TGI

- Nc1ccc(OCC(O)N2C(=O)c3ccccc3C2=O)cc1 (stereo not given): > 100 µM
- CN(C)/N=C1\C=C2CC[C@H](O[Si](C)(C)C(C)(C)C)[C@@]2(C)CC1: 44 µM
- O=C(N[C@@H]1C=CCC[C@@H]1c1ccccc1)OCc1ccccc1: 43.9 µM
- O=C1N[C@H]2C(=O)c3c(Cl)sc(Cl)c3[C@H]2O1: 10.9 µM
- CCOC(=O)/C(=C\c1ccnc2ccccc12)P(=O)(OCC)OCC: 1.96 µM
- Cc1nc2c(=O)n(C)c(=O)nc-2n(CCO)c1C: > 100 µM
- CC(C)c1cccc(C(C)C)c1NC(=O)C(=O)CC(=O)CC(c1ccccc1)c1c(O)c2ccccc2oc1=O (stereo not given): > 100 µM
- COc1ccc(C2=CC(c3ccc(Oc4ccnc5cc(Cl)ccc45)c(OC)c3)c3c(nc(OC)[nH]c3=O)N2)cc1 (stereo not given): > 100 µM
- COc1cc(-c2nc3ccccc3[nH]2)ccc1OCC(=O)N=Nc1c(O)[nH]c2ccc(Cl)cc12: 3.56 µM
- CCCC(=O)OCC1(CO)C/C(=C/CC(C(C)C)C(C)C)C(=O)O1 (stereo not given): > 100 µM

---

- Tested on: CAKI-1 renal
- measurementNotes: NCI tumour cell line growth inhibition, 48 h
measurementKind: TGI (µM)

- COC(=O)CCCC(=O)NC1=C(Nc2ccccc2)C(=O)c2ccccc2C1=O: 44
- Nc1ccc(C(=O)NN2C(=O)C(Cl)C2c2cc(Br)cc(Br)c2O)cc1 (centres undefined): 64

---

- System: UACC-257 melanoma
- measurementNotes: NCI tumour cell line growth inhibition, 48 h
measurementKind: TGI

- C/C=C/C(=O)[C@@H](O)C(C)C: > 100 µM
- C/C(=N/NC(=S)N(C)CCc1ccccn1)c1cnccn1: 34.6 µM
- C/C(=C1/N=C(c2ccccc2)OC1=O)c1ccc(C)cc1: > 100 µM
